- Test system: RAW264.7
- assay method text: Antiinflammatory activity against LPS induced mouse RAW264.7 cells assessed as decrease in TNFalpha production at 50 uM after 24 hrs by ELISA
- Format: functional
- Parameters: scale not given: the % may be the effect or the level left
measured metric: Activity

Examples from the recorded data:
Cc1ccc(-c2cc(C(F)(F)F)nn2-c2ccc(S(N)(=O)=O)cc2)cc1 :: 75%
COc1cc(/C=N/C2=NNC(=O)C2c2ccc(Cl)nn2)cc(OC)c1OC (centres undefined) :: 48%
COc1cc(/C=N/C2=NN=C(N)C2c2ccc(Cl)nn2)cc(OC)c1OC (centres undefined) :: 70%

# evaluate next
Query string: Endpoint output: Activity of NC1=NN=C(/N=C/c2ccc(Br)cc2)C1c1ccc(Cl)nn1 (centres undefined) . Value?
Result string: 65%
